- System: MDA-MB-231 breast
- test: NCI tumour cell line growth inhibition, 48 h
Consider the following compounds and their measured GI50 readings.

[[record]]
compound = "Clc1ccccc1-c1nnc2c(Cc3ccccc3)nc3ccccc3n12"
testedtarget = "MDA-MB-231 breast"
endpointlabel = "GI50"
measurement = "7.09 µM"

[[record]]
compound = "C/C(=C(\\c1ccc(OCCN2CCCCCC2)cc1)c1ccc(OC(=O)c2ccccc2)cc1)c1ccc(Cl)cc1"
testedtarget = "MDA-MB-231 breast"
endpointlabel = "GI50"
measurement = "4.9 µM"

[[record]]
compound = "CCNC(=O)Oc1ccc(/C(=C(/C)Cc2ccc(OC)cc2)c2ccc(OCCN(CC)CC)cc2)cc1"
testedtarget = "MDA-MB-231 breast"
endpointlabel = "GI50"
measurement = "1.78 µM"

[[record]]
compound = "CO[C@H]1CC(O[C@@H]2/C(C)=C/C[C@@H]3C[C@@H](C[C@]4(CC[C@H](C)[C@@H](C5CCCCC5)O4)O3)OC(=O)[C@@H]3C=C(C)/C(=N/O)[C@H]4OC/C(=C\\C=C\\[C@@H]2C)[C@]43O)O[C@@H](C)C1O (stereo partly drawn)"
testedtarget = "MDA-MB-231 breast"
endpointlabel = "GI50"
measurement = "0.768 µM"

[[record]]
compound = "Oc1c(Cl)cc(Cl)c2ccc(Cn3cc(-c4ccc(C(F)(F)F)cc4)nn3)nc12"
testedtarget = "MDA-MB-231 breast"
endpointlabel = "GI50"
measurement = "2.19 µM"


// fetch GI50 for N#Cc1cnc(Nc2cc(NC[C@H]3CNCCO3)c(C(F)(F)F)cn2)cn1 ; system: MDA-MB-231 breast 13.1 µM

Find the measured GI50 of C=CCC(N[C@H](CO)c1ccccc1)c1cn(Cc2ccccc2Cl)c(=O)n(Cc2ccccc2Cl)c1=O (stereo partly drawn) with MDA-MB-231 breast as test system. 3.74 µM

Fill: GI50 (MDA-MB-231 breast) for this compound Cc1cc(C)c(-c2c(N)cc(Br)cc2Br)c(N)c1 4.85 µM
